test: Half life in Sprague-Dawley rat at 20 mg/kg, po measured upto 24 hrs by LC/MS/MS analysis; format: ADME, organism-based; settings: in vivo

{"Smiles Str": "C=CC(=O)Nc1ccc(Oc2ccc(NC(=O)Nc3ccc(CN4CCN(C)CC4)c(C(F)(F)F)c3)cc2)cn1", "half-life": "3.12 h"}

---

test system: Hep 3B2; assay: Antiproliferative activity against human Hep3B cells assessed as inhibition of cell growth at 10 uM measured after 72 hrs by CCK8 assay; assay type: functional

{"Smiles Str": "C=CC(=O)Nc1ccc(-c2ccc(NC(=O)Nc3ccc(CN4CCN(C)CC4)c(C(F)(F)F)c3)nc2)cn1", "inhibition at 10 µM [%]": 67}
{"Smiles Str": "C=CC(=O)Nc1ccc(Oc2ccc(NC(=O)Nc3ccc(CN4CCN(C)CC4)c(C(F)(F)F)c3)cc2)cn1", "inhibition at 10 µM [%]": 91}
{"Smiles Str": "C=CC(=O)Nc1ccc(-c2ccc(NC(=O)Nc3ccc(CN4CCN(C)CC4)c(C(F)(F)F)c3)cc2F)cn1", "inhibition at 10 µM [%]": 95.7}
{"Smiles Str": "Cc1ccc(C(=O)Nc2ccc(CN3CCN(C)CC3)c(C(F)(F)F)c2)cc1C#Cc1cnc2cccnn12", "inhibition at 10 µM [%]": 95.5}

Just for reference, ChEMBL document CHEMBL5257129 is where these values come from.
